These entries and their values trace back to ChEMBL document CHEMBL1125696.

SYSTEM_UNDER_TEST: Delta-type opioid receptor (Rattus norvegicus)
EXPERIMENTAL_DETAILS: Opioid receptor binding affinity in rat brain membrane preparations by the displacement of [3H]DSLET (Opioid receptor delta 1-selective radioligand)
Type: cell membranes
RESULT_TYPE: IC50 (nM)
Numbers only, in nM.

Sample records with IC50:
>  <SUBSTANCE>
H-YMFDLMD-OH

>  <IC50 / nM>
80

$$$$
>  <SUBSTANCE>
H-YMFGLMD-NH2

>  <IC50 / nM>
14

$$$$

Consider the following items and state reported IC50 for each.
1. H-YAFQVVG-NH2
2. H-YMFKLMD-NH2

A:
1. 3.8
2. 550

---

SYSTEM_UNDER_TEST: Delta-type opioid receptor (Mus musculus, UniProt P32300)
Sequence (P32300 whole entry): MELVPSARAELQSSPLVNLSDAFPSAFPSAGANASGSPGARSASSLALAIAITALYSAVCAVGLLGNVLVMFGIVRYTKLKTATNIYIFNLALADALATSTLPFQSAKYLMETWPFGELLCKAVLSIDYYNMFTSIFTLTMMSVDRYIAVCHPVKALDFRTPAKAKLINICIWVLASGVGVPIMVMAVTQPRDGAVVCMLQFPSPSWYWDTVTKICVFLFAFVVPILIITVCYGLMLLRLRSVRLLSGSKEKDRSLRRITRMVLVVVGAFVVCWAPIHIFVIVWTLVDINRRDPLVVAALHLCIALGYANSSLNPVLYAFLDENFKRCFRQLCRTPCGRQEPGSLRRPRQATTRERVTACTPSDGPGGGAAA
EXPERIMENTAL_DETAILS: In vitro opioid receptor delta mediated mouse vas deferens (MVD) assay
Assay type: tissue-based
We label by threshold. Values of IC50 strictly beneath 2 nM are 1. Values of 2 nM and up are 0.

Q: In the record for H-YMFYLMD-NH2 , is IC50 less than 2 nM?
A: 1

Q: In the record for H-YMFHLMN-NH2 , is IC50 less than 2 nM?
A: 0

Q: In the record for H-YMFFLMD-NH2 , is IC50 less than 2 nM?
A: 1

Q: In the record for H-YMFHLMD-OH , is IC50 less than 2 nM?
A: 1

Q: In the record for H-YAFDVV-NH2 , is IC50 less than 2 nM?
A: 0

Q: In the record for H-YMFHLMN-OH , is IC50 less than 2 nM?
A: 0

---

SYSTEM_UNDER_TEST: Delta-type opioid receptor (Rattus norvegicus)
EXPERIMENTAL_DETAILS: Displacement of [3H]- DPDPE from delta opioid receptor in rat brain membrane
Format: cell membranes
Non-standard residues stand in square brackets, D forms with d. Residues, ends and D or L forms follow the SMILES beside them. Abu = CC[C@H](N)C(=O)O
RESULT_TYPE: pIC50
Answers are plain numbers, as −log10 of the molar value.

Sample records with pIC50:
>  <COMPOUND>
CC(C)[C@H](NC(=O)[C@H](CC(=O)O)NC(=O)[C@H](Cc1ccccc1)NC(=O)[C@H](C)NC(=O)[C@@H](N)Cc1ccc(O)cc1)C(=O)N[C@H](C(=O)NCC(N)=O)C(C)C

>  <SYSTEM_UNDER_TEST>
Delta-type opioid receptor (Rattus norvegicus)

>  <pIC50>
8.96

$$$$
>  <COMPOUND>
CC[C@H](NC(=O)[C@H](CCSC)NC(=O)[C@H](CC(C)C)NC(=O)[C@H](Cc1cnc[nH]1)NC(=O)[C@H](Cc1ccccc1)NC(=O)[C@H](CCSC)NC(=O)[C@@H](N)Cc1ccc(O)cc1)C(N)=O (H-YMFHLM[Abu]-NH2)

>  <SYSTEM_UNDER_TEST>
Delta-type opioid receptor (Rattus norvegicus)

>  <pIC50>
8.13

$$$$
>  <COMPOUND>
CSCC[C@H](NC(=O)[C@H](CC(C)C)NC(=O)[C@H](Cc1cnc[nH]1)NC(=O)[C@H](Cc1ccccc1)NC(=O)[C@@H](CCSC)NC(=O)[C@@H](N)Cc1ccc(O)cc1)C(=O)N[C@@H](CC(=O)O)C(N)=O (H-Y[dM]FHLMD-NH2)

>  <SYSTEM_UNDER_TEST>
Delta-type opioid receptor (Rattus norvegicus)

>  <pIC50>
8.21

$$$$

Response field pIC50 (Delta-type opioid receptor (Rattus norvegicus)) for item CC(C)[C@H](NC(=O)[C@H](CCC(=O)O)NC(=O)[C@H](Cc1ccccc1)NC(=O)[C@H](C)NC(=O)[C@@H](N)Cc1ccc(O)cc1)C(=O)N[C@H](C(=O)NCC(N)=O)C(C)C : 8.44

---

SYSTEM_UNDER_TEST: Delta-type opioid receptor (Rattus norvegicus)
EXPERIMENTAL_DETAILS: Displacement of [3H]DSLET from delta opioid receptor in rat brain membrane
Assay type: cell membranes
We label by threshold. Values of IC50 strictly beneath 20 nM are condition met. Values of 20 nM and up are condition not met.

>  <SUBSTANCE>
H-YAFDVV-NH2

>  <ANSWER_LABEL>
condition met

$$$$
>  <SUBSTANCE>
H-YMFFLMD-NH2

>  <ANSWER_LABEL>
condition met

$$$$
>  <SUBSTANCE>
H-YMFYLMD-NH2

>  <ANSWER_LABEL>
condition met

$$$$
>  <SUBSTANCE>
H-YMFHLMD-OH

>  <ANSWER_LABEL>
condition met

$$$$

Q: In the record for H-YMFHLMN-OH , is IC50 less than 20 nM?
A: condition not met

---

SYSTEM_UNDER_TEST: Mu-type opioid receptor (Rattus norvegicus)
Sequence (P33535 whole entry): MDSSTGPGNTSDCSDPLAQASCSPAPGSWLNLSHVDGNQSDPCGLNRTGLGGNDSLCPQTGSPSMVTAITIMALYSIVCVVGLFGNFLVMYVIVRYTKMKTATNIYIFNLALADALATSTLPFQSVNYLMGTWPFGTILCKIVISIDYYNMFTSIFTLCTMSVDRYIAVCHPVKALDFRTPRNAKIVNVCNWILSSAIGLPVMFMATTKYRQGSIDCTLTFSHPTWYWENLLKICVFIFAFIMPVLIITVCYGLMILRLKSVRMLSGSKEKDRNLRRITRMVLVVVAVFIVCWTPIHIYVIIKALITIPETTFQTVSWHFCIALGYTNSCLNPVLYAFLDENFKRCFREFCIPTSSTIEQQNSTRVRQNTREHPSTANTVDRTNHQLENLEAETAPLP
EXPERIMENTAL_DETAILS: Displacement of [3H]- DAGO from opioid receptor mu in rat brain membrane
Format: cell membranes
Non-standard residues stand in square brackets, D forms with d. Residues, ends and D or L forms follow the SMILES beside them. Abu = CC[C@H](N)C(=O)O
For each entry below, report its pIC50 value.
One number for each entry, as −log10 of the molar value.

Sample records with pIC50:
>  <COMPOUND>
CC(C)[C@H](NC(=O)[C@H](CC(=O)O)NC(=O)[C@H](Cc1ccccc1)NC(=O)[C@H](C)NC(=O)[C@@H](N)Cc1ccc(O)cc1)C(=O)N[C@H](C(=O)NCC(N)=O)C(C)C

>  <pIC50>
6.04

$$$$
>  <COMPOUND>
CC[C@H](NC(=O)[C@H](CCSC)NC(=O)[C@H](CC(C)C)NC(=O)[C@H](Cc1cnc[nH]1)NC(=O)[C@H](Cc1ccccc1)NC(=O)[C@H](CCSC)NC(=O)[C@@H](N)Cc1ccc(O)cc1)C(N)=O (H-YMFHLM[Abu]-NH2)

>  <pIC50>
6.44

$$$$
>  <COMPOUND>
CSCC[C@H](NC(=O)[C@H](CC(C)C)NC(=O)[C@H](Cc1cnc[nH]1)NC(=O)[C@H](Cc1ccccc1)NC(=O)[C@@H](CCSC)NC(=O)[C@@H](N)Cc1ccc(O)cc1)C(=O)N[C@@H](CC(=O)O)C(N)=O (H-Y[dM]FHLMD-NH2)

>  <pIC50>
5.92

$$$$

Consider the following items and state reported pIC50 for each.
1. C[C@H](NC(=O)[C@@H](N)Cc1ccc(O)cc1)C(=O)N[C@@H](Cc1ccccc1)C(=O)N[C@@H](CC(=O)O)C(N)=O (H-YAFD-NH2)
2. C[C@@H](NC(=O)[C@@H](N)Cc1ccc(O)cc1)C(=O)N[C@@H](Cc1ccccc1)C(=O)NCC(=O)N[C@@H](Cc1ccc(O)cc1)C(=O)N1CCC[C@H]1C(=O)N[C@@H](CO)C(N)=O [DERMORPHIN]

A:
1. 7.00
2. 8.49

---

EXPERIMENTAL_DETAILS: IC50 ratio is [3H]- DAGO/[3H]-DSLET
RESULT_TYPE: Ratio

Sample records with Ratio:
>  <SUBSTANCE>
H-YAFQVVG-NH2

>  <Ratio>
73

$$$$
>  <SUBSTANCE>
H-YMFKLMD-NH2

>  <Ratio>
11

$$$$

Consider the following items and state reported Ratio for each.
1. H-YMFDLMD-OH
2. H-YMFGLMD-NH2

A:
1. > 375
2. 11.5

---

SYSTEM_UNDER_TEST: Delta-type opioid receptor (Mus musculus, UniProt P32300)
EXPERIMENTAL_DETAILS: Compound is tested in vitro in mouse vas deferens (MVD) assay mediated by Opioid receptor delta 1
Type: tissue-based
Non-standard residues stand in square brackets, D forms with d. Residues, ends and D or L forms follow the SMILES beside them. Abu = CC[C@H](N)C(=O)O
RESULT_TYPE: IC50 (nM)
One number for each entry, in nM.

Response field IC50 (Delta-type opioid receptor (Mus musculus, UniProt P32300)) for item CC[C@H](NC(=O)[C@@H](NC(=O)CNC(=O)[C@H](Cc1ccccc1)NC(=O)[C@H](C)NC(=O)[C@@H](N)Cc1ccc(O)cc1)C(C)C)C(=O)N[C@@H](CC(=O)O)C(N)=O (H-YAFGV[Abu]D-NH2) : 11.1

---

SYSTEM_UNDER_TEST: Delta-type opioid receptor (Rattus norvegicus, UniProt P33533)
Sequence (P33533 whole entry): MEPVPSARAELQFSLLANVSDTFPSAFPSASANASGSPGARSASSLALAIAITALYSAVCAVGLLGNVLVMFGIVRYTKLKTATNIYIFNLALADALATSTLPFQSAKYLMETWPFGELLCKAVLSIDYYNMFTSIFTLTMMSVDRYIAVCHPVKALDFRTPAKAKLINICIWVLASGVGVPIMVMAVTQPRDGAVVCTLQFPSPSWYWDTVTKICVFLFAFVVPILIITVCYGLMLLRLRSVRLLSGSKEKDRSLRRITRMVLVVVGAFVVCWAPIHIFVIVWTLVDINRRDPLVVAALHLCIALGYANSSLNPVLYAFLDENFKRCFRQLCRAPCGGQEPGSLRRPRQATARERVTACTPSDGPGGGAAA
EXPERIMENTAL_DETAILS: Displacement of [3H]DSLET from delta opioid receptor in rat brain membrane
Type: cell membranes
Non-standard residues stand in square brackets, D forms with d. Residues, ends and D or L forms follow the SMILES beside them. Abu = CC[C@H](N)C(=O)O
RESULT_TYPE: log10(IC50) (log10 of the value in nM)
Could you please treat all values as log10 of IC50 in nM?

Sample records with log10(IC50):
>  <MOLECULE>
CC(C)[C@H](NC(=O)[C@H](CCC(=O)O)NC(=O)[C@H](Cc1ccccc1)NC(=O)[C@H](C)NC(=O)[C@@H](N)Cc1ccc(O)cc1)C(=O)N[C@H](C(=O)NCC(N)=O)C(C)C

>  <log10(IC50)>
0.58

$$$$
>  <MOLECULE>
C[C@H](NC(=O)[C@@H](N)Cc1ccc(O)cc1)C(=O)N[C@@H](Cc1ccccc1)C(=O)N[C@@H](CC(=O)O)C(N)=O (H-YAFD-NH2)

>  <log10(IC50)>
2.98

$$$$
>  <MOLECULE>
CC(C)[C@H](NC(=O)[C@H](CCC(=O)O)NC(=O)[C@H](Cc1ccccc1)NC(=O)[C@H](C)NC(=O)[C@@H](N)Cc1ccc(O)cc1)C(=O)N[C@H](C(=O)NCC(=O)O)C(C)C [DELTORPHINE II]

>  <log10(IC50)>
2.26

$$$$

Consider the following items and state reported log10(IC50) for each.
1. CC[C@H](NC(=O)[C@H](CCSC)NC(=O)[C@H](CC(C)C)NC(=O)[C@H](Cc1cnc[nH]1)NC(=O)[C@H](Cc1ccccc1)NC(=O)[C@H](CCSC)NC(=O)[C@@H](N)Cc1ccc(O)cc1)C(N)=O (H-YMFHLM[Abu]-NH2)
2. CC(C)[C@H](NC(=O)[C@H](CC(=O)O)NC(=O)[C@H](Cc1ccccc1)NC(=O)[C@H](C)NC(=O)[C@@H](N)Cc1ccc(O)cc1)C(=O)N[C@H](C(=O)NCC(N)=O)C(C)C
3. CSCC[C@H](NC(=O)[C@H](CC(C)C)NC(=O)[C@H](Cc1cnc[nH]1)NC(=O)[C@H](Cc1ccccc1)NC(=O)[C@@H](CCSC)NC(=O)[C@@H](N)Cc1ccc(O)cc1)C(=O)N[C@@H](CC(=O)O)C(N)=O (H-Y[dM]FHLMD-NH2)

A:
1. 1.26
2. 0.18
3. 0.95
